tested on: CD2F1 mice, L1210 leukemia ip, survival T/C; assay: NCI In Vivo Anticancer Drug Screen. Data for tumor model L1210 Leukemia (intraperitoneal) in CD2F1 (CDF1) mice; details: endpoint: mean survival time; dose: 200.0 mg/kg/injection; schedule: Q01DX009 (ip); vehicle: saline with Tween-80; higher = longer survival
Toxic doses and inconclusive results are not listed.
Below, each entry is listed alongside its reported T/C.
MEASURED METRIC: T/C

• Cc1ccc(NC(=O)c2ccccc2C(=O)O)cc1C = 95 % of control
• C/C=C/c1ccc(OC(C)=O)c(OC)c1 = 94 % of control
• O=C(O)CNCC(=O)O = 97 % of control
